Recorded melting point by entry

{"Molecule": "O=C(O)[C@H]1C=C[C@H](c2ccccc2)n2c(=O)n(CCCl)c(=O)n21 (relative stereo)", "melting point": "141 to 143 °C"}
{"Molecule": "CCn1c2c(c3ccccc3c1=O)C(=O)c1ccccc1-2", "melting point": "188 to 189 °C"}
{"Molecule": "N#Cc1ccc(CCC2CCC(=O)CC2)cc1", "melting point": "62.5 to 64.3 °C"}
{"Molecule": "O=C1NC(=O)C(C2CCc3cc(O)ccc32)S1 (stereo not given)", "melting point": "108 to 112 °C"}
{"Molecule": "N#CC1=C(C2CCCCCC2)Nc2n[nH]cc2C1c1ccccc1Cl (stereo not given)", "melting point": "146 °C"}
{"Molecule": "C=C(CC(NC(=O)OC(C)(C)C)C(=O)OCC)CC(NC=O)(C(=O)OCC)C(=O)OCC (stereo not given)", "melting point": "68 °C"}
{"Molecule": "COC(=O)c1ccc(Cn2nc(C(C)(C)C)cc2O)cc1", "melting point": "161 to 162 °C"}
{"Molecule": "CN(C)C(=O)c1ccc(-c2ccc(N)cc2)cc1", "melting point": "184 to 186 °C"}
{"Molecule": "CC(C)(C)OC(=O)CC[C@@H](NC(=O)OCc1ccccc1)C(N)=O", "melting point": "138 to 140 °C"}
{"Molecule": "O=C(c1ccc(Cl)cc1)c1ccc2[nH]c(=O)cc(C(=O)O)c2c1", "melting point": "> 260 °C"}

* * *

Recorded melting point by entry

{"Compound": "COc1cccc([C@H]2O[C@H](CC(=O)NCc3ccoc3C(=O)O)C(=O)N(CC(C)(C)CO)c3ccc(Cl)cc32)c1OC", "melting point": "125 to 128 °C"}
{"Compound": "CC(=O)c1c(-c2ccccc2)oc(-c2ccncc2)c1C", "melting point": "108 to 110 °C"}
{"Compound": "COC(=O)c1nc2cc(I)ccc2c(O)c1C(=O)OC", "melting point": "243 to 244 °C"}
{"Compound": "COc1ccc(C(=O)c2ccc(Oc3ccccc3)cc2)cc1", "melting point": "118 to 119 °C"}
{"Compound": "COC1=CC(=O)c2c(C)cccc2C1=O", "melting point": "138 to 140 °C"}
{"Compound": "CC1CCC2(OC1)OC1CC3C4CCC5CC(O)CCC5(C)C4C=CC3(C)C1C2C (stereo not given)", "melting point": "179 to 181 °C"}
{"Compound": "NC1CSC(c2ccsc2)CNC1=O (stereo not given)", "melting point": "190 to 191 °C"}
{"Compound": "CN(C)c1cccc2c(S(=O)(=O)Nc3ccc(Cl)nn3)cccc12", "melting point": "153 to 154 °C"}
{"Compound": "CCCC(NS(=O)(=O)c1ccc(Cl)cc1)C(=O)NNC(=S)NC (stereo not given)", "melting point": "191 to 195 °C"}
{"Compound": "OC(CC(Br)=CBr)(CC(Br)=CBr)Cn1cncn1 (stereo not given)", "melting point": "100 °C"}
{"Compound": "CCCCCCCCCCCCCCCCCCNC(=O)c1cc(O)cc(O)c1", "melting point": "114 to 117 °C"}
{"Compound": "CCOC(=O)c1c(O)c2ccccc2n(Cc2ccc(F)cc2)c1=O", "melting point": "116 to 120 °C"}
{"Compound": "COc1ccc(Sc2ccccc2/C=C/C(=O)NCCCCO)cc1", "melting point": "134 to 136 °C"}
{"Compound": "C[C@@](O)(C(=O)Nc1ccc(S(=O)(=O)c2ccccc2NCCO)cc1Cl)C(F)(F)F", "melting point": "68 to 70 °C"}
{"Compound": "Cc1cc(Cl)cc2[nH]c(=O)c(=O)[nH]c12", "melting point": "> 250 °C"}
{"Compound": "CCOc1ccc(CC2SC(=N)NC2=O)cc1OCC (stereo not given)", "melting point": "171 to 172 °C"}
{"Compound": "Cc1cccc(-c2cc(Cl)c3ccccc3n2)c1", "melting point": "75 to 77 °C"}
{"Compound": "CCCCc1nc2ccc(C(C)=O)cc2c(=O)n1Cc1ccc(-c2ccccc2-c2nnnn2C(c2ccccc2)(c2ccccc2)c2ccccc2)cc1", "melting point": "104 to 105 °C"}
{"Compound": "CCCCCOc1ccc(-c2ccc(-c3ccccc3CC)cc2)cc1", "melting point": "62 to 65 °C"}
{"Compound": "Cn1cc(C(=O)NCc2ccc(Cl)cc2)c(=O)c2cc(CN3CCOC[C@@H]3[C@H](O)c3ccccc3)sc21", "melting point": "129 to 134 °C"}
{"Compound": "O=c1[nH]c(=O)n(C2OC(CBr)C(O)C2O)cc1C=CBr (stereo not given)", "melting point": "201 °C"}
{"Compound": "Cc1cc(CCCCCOc2c(Cl)cc(C3=NCCO3)cc2Cl)sn1", "melting point": "38 to 39.5 °C"}
{"Compound": "Cc1nc(NC(=O)c2cccc(F)c2)sc1C(=O)NCc1ccccc1", "melting point": "162 to 165 °C"}
{"Compound": "CCN(CC)CCN1C(=O)c2cc(Cl)c(S(N)(=O)=O)cc2C1=O", "melting point": "152 to 154 °C"}
{"Compound": "Cc1ccc(SN(C)C=Nc2ccc(Cl)cc2C)cc1", "melting point": "49 to 50.5 °C"}
{"Compound": "N#CC(c1ccc(Cl)cc1)N(Cc1ccccc1)C(=O)C(F)(F)F (stereo not given)", "melting point": "131 to 132 °C"}
{"Compound": "CCOC(=O)c1cc2ccccc2nc1C", "melting point": "70 to 72 °C"}
{"Compound": "COc1ccc(-c2cc(-c3nccs3)c(=O)n(C)c2-c2ccncc2)cc1", "melting point": "224 to 225 °C"}
{"Compound": "O=c1c(C2=CS(=O)(=O)c3cc(NS(=O)(=O)C4CC4)ccc3N2)c(O)c2cc(F)ccc2n1CCC1CC1", "melting point": "145 to 155 °C"}
{"Compound": "O=C1CCC(c2c(-c3ccccc3)nn3ccccc23)=NN1", "melting point": "187 to 189 °C"}
{"Compound": "NC(=O)Cc1ccc(OCC(O)CNCCCn2cnc3ccccc32)cc1 (stereo not given)", "melting point": "92 to 96 °C"}
{"Compound": "CS(=O)(=O)c1ccc(-c2cnn(-c3ccc(C#N)cc3)c(=O)c2-c2ccc(F)cc2)cc1", "melting point": "273 to 278 °C"}
{"Compound": "Cn1cc2c(Cl)cc(-c3ccccc3)nc2n1", "melting point": "177 to 179 °C"}
{"Compound": "O=C(Cl)c1ccc(-c2ccc(C(=O)Cl)cn2)nc1", "melting point": "216 to 217 °C"}
{"Compound": "COC12CC(CNC(=S)NC(C)=O)CN(C)C1Cc1cn(C)c3cccc2c13 (stereo not given)", "melting point": "170 to 172 °C"}
{"Compound": "CCOC(=O)c1cc(C(=O)c2cccc(S(=O)(=O)F)c2)sc1N", "melting point": "168 to 170 °C"}
{"Compound": "COc1cc2c(Oc3ccc4[nH]c(C)cc4c3)ncnc2cc1OCC1CCN(C)C(=O)C1 (stereo not given)", "melting point": "250 to 251 °C"}
{"Compound": "CC(C#Cc1ccc2c(c1)CCN(Cc1ccc(-c3ccc(F)cc3)cn1)C2=O)N(O)C(N)=O (stereo not given)", "melting point": "118 to 120 °C"}
{"Compound": "NC(=O)N1CCN(c2nn(-c3ccccc3F)c3ccccc23)CC1", "melting point": "148 to 150 °C"}
{"Compound": "CC(=O)ON(C)C(=O)C(C)Nc1c([N+](=O)[O-])cc(C)cc1[N+](=O)[O-] (stereo not given)", "melting point": "137 to 138 °C"}

Provenance of the data: a melting point compilation (Tetko et al.; mined from patent text by program, amines drawn as free bases though some values may be those of a salt)
